The origin of these recorded values is patent US8404708B2.

# measuredOn: human NK1 receptor (Homo sapiens, UniProt P25103)
# Sequence (P25103 whole entry): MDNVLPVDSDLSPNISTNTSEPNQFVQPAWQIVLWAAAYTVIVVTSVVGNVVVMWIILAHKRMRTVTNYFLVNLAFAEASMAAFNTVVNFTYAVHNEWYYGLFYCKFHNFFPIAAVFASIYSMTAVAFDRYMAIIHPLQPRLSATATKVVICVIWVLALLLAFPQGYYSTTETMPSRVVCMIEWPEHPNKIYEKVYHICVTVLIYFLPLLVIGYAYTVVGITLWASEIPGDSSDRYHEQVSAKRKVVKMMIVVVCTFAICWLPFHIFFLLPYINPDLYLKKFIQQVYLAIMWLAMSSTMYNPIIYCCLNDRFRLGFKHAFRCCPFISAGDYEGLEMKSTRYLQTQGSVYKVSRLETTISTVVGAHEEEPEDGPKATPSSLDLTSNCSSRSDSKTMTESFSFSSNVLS
# assayMethodText: NK1 receptor binding, [3H]substance P displacement, CHO cell membranes
# testParameters: first value of the cell pKi NK1/NK3; human NK1 receptor, [3H]substance P
assayReadout: Ki (nM)

The examples below pair each entry with its known result.
[
  {
    "molecule": "CN(C(=O)C(C)(C)c1cc(C(F)(F)F)cc(C(F)(F)F)c1)c1cnc(NCCO)cc1-c1ccc(F)cc1Cl",
    "measuredOn": "human NK1 receptor (Homo sapiens, UniProt P25103)",
    "unitAbbrev": "nM",
    "Ki": 1.12
  },
  {
    "molecule": "COc1cc(Cl)cc(C(C)(C)C(=O)N(C)c2cnc(N3C[C@H](O)C[C@H]3CO)cc2-c2ccccc2Cl)c1",
    "measuredOn": "human NK1 receptor (Homo sapiens, UniProt P25103)",
    "unitAbbrev": "nM",
    "Ki": 1.7
  }
]

[I] Cc1ccccc1-c1cc(NC[C@H](C)O)ncc1N(C)C(=O)C(C)(C)c1cc(C(F)(F)F)cc(C(F)(F)F)c1
[II] Cc1c(F)cccc1-c1cc(N2CCC[C@H]2CO)ncc1N(C)C(=O)C(C)(C)c1cc(C(F)(F)F)cc(C(F)(F)F)c1
[III] Cc1cc(F)ccc1-c1cc(N2[C@@H](CO)CC[C@@H]2CO)ncc1N(C)C(=O)C(C)(C)c1cc(C(F)(F)F)cc(C(F)(F)F)c1
[IV] Cc1ccccc1-c1cc(N2CCS(=O)(=O)CC2CO)ncc1N(C)C(=O)C(C)(C)c1cc(C(F)(F)F)cc(C(F)(F)F)c1 (racemic)
query: Highest Ki first, then in falling order down to the smallest. Ranked list of labels, please, in the requested order.
result: II, III, I, IV
(II: 4.47 nM, III: 2.51 nM, I: 1.38 nM, IV: 0.933 nM)

----------
# measuredOn: human NK1 receptor (Homo sapiens)
# assayMethodText: NK1 receptor binding, [3H]substance P displacement, CHO cell membranes
# testParameters: first value of the cell pKi NK1/NK3; human NK1 receptor, [3H]substance P
assayReadout: Ki (nM)

# count of solved cases: 9
[
  {
    "molecule": "CC(C)C[C@@H](CO)Nc1cc(-c2ccccc2Cl)c(N(C)C(=O)C(C)(C)c2cc(C(F)(F)F)cc(C(F)(F)F)c2)cn1",
    "unitAbbrev": "nM",
    "Ki": 3.24
  },
  {
    "molecule": "Cc1ccccc1-c1cc(N2C[C@@H](O)C[C@@H]2CO)ncc1N(C)C(=O)C(C)(C)c1cc(F)cc(C(F)(F)F)c1 (stereo in doubt)",
    "unitAbbrev": "nM",
    "Ki": 1.29
  },
  {
    "molecule": "Cc1ccccc1-c1cc(N2CC[C@@H](O)[C@@H](CO)C2)ncc1N(C)C(=O)C(C)(C)c1cc(C(F)(F)F)cc(C(F)(F)F)c1 (racemic)",
    "unitAbbrev": "nM",
    "Ki": 3.02
  },
  {
    "molecule": "CN(C(=O)C(C)(C)c1cc(F)cc(C(F)(F)F)c1)c1cnc(N2CCC[C@H]2CO)cc1-c1ccccc1Cl",
    "unitAbbrev": "nM",
    "Ki": 4.47
  },
  {
    "molecule": "Cc1ccccc1-c1cc(NC[C@@H](C)O)ncc1N(C)C(=O)C(C)(C)c1cc(C(F)(F)F)cc(C(F)(F)F)c1",
    "unitAbbrev": "nM",
    "Ki": 1.91
  },
  {
    "molecule": "Cc1cc(F)ccc1-c1cc(N2[C@H](CO)CC[C@H]2CO)ncc1N(C)C(=O)C(C)(C)c1cc(C(F)(F)F)cc(C(F)(F)F)c1",
    "unitAbbrev": "nM",
    "Ki": 1.78
  },
  {
    "molecule": "CN(C(=O)C(C)(C)c1cc(C(F)(F)F)cc(C(F)(F)F)c1)c1cnc(N2CC[C@H](O)[C@H]2CO)cc1-c1ccccc1Br",
    "unitAbbrev": "nM",
    "Ki": 1.66
  },
  {
    "molecule": "Cc1ccc(F)cc1-c1cc(N(CCO)CCO)ncc1N(C)C(=O)C(C)(C)c1cc(C(F)(F)F)cc(C(F)(F)F)c1",
    "unitAbbrev": "nM",
    "Ki": 2.63
  },
  {
    "molecule": "Cc1cc(C)cc(C(C)(C)C(=O)N(C)c2cnc(N3C[C@H](O)C[C@H]3CO)cc2-c2ccccc2Cl)c1",
    "unitAbbrev": "nM",
    "Ki": 2.14
  }
]

[A] Cc1ccc(-c2cc(N3C[C@H](O)C[C@H]3CO)ncc2N(C)C(=O)C(C)(C)c2cc(C(F)(F)F)cc(C(F)(F)F)c2)cc1
[B] Cc1ccccc1-c1cc(N2C[C@H](O)[C@@H](O)C2)ncc1N(C)C(=O)C(C)(C)c1cc(C(F)(F)F)cc(C(F)(F)F)c1
[C] Cc1ccccc1-c1cc(N2CCC[C@H]2CO)ncc1N(C)C(=O)C(C)(C)c1cc(F)cc(F)c1
[D] CCC(O)CNc1cc(-c2ccccc2Cl)c(N(C)C(=O)C(C)(C)c2cc(C(F)(F)F)cc(C(F)(F)F)c2)cn1 (stereo not shown)
query: Sort these molecules on Ki so the largest reading comes first. Answer by listing the labels in the requested order.
result: C, A, D, B

----------
# measuredOn: human NK1 receptor (Homo sapiens, UniProt P25103)
# assayMethodText: NK1 receptor binding, [3H]substance P displacement, CHO cell membranes
# testParameters: first value of the cell pKi NK1/NK3; human NK1 receptor, [3H]substance P
assayReadout: Ki (nM)

[
  {
    "molecule": "Cc1ccccc1-c1cc(N2CCOC(CO)C2)ncc1N(C)C(=O)C(C)(C)c1cc(C(F)(F)F)cc(C(F)(F)F)c1 (racemic) [Example 176]",
    "unitAbbrev": "nM",
    "numericResult": 2.09
  }
]

[1] CN(C(=O)C(C)(C)c1cc(C(F)(F)F)cc(C(F)(F)F)c1)c1cnc(N2C[C@H](O)C[C@H]2CO)cc1-c1ccc(F)cc1 [Example 202]
[2] CN(C(=O)C(C)(C)c1cc(C(F)(F)F)cc(C(F)(F)F)c1)c1cnc(N2CC[C@H](O)[C@H]2CO)cc1-c1ccc(Cl)cc1Cl [Example 137]
query: Hi there, can you help? I need to know whether 1 or 2 has lower measured Ki. Provide the label of your selected option as the answer.
result: 1
(1: 1.2 nM, 2: 2.82 nM)

----------
# measuredOn: human NK1 receptor (Homo sapiens, UniProt P25103)
# assayMethodText: NK1 receptor binding, [3H]substance P displacement, CHO cell membranes
# testParameters: first value of the cell pKi NK1/NK3; human NK1 receptor, [3H]substance P
assayReadout: Ki (nM)

[
  {
    "molecule": "CN(C(=O)C(C)(C)c1cc(C(F)(F)F)cc(C(F)(F)F)c1)c1cnc(N2C[C@H](O)C[C@H]2CO)cc1-c1ccccc1 [Example 201]",
    "unitAbbrev": "nM",
    "Ki": 1.48
  },
  {
    "molecule": "Cc1ccccc1-c1cc(N2CC[C@H](O)[C@@H](CO)C2)ncc1N(C)C(=O)C(C)(C)c1cc(C(F)(F)F)cc(C(F)(F)F)c1 (racemic) [Example 191]",
    "unitAbbrev": "nM",
    "Ki": 2.04
  }
]

[P] CN(C(=O)C(C)(C)c1cc(C(F)(F)F)cc(C(F)(F)F)c1)c1cnc(NC(CO)CO)cc1-c1ccccc1Cl [Example 81]
[Q] CN(C(=O)C(C)(C)c1cc(C(F)(F)F)cc(C(F)(F)F)c1)c1cnc(N[C@@H]2CCCC[C@H]2O)cc1-c1ccccc1Cl (racemic) [Example 151]
query: Hey, which is lower on measured Ki, P or Q ? The response must carry the label of the picked entry.
result: Q

----------
# measuredOn: human NK1 receptor (Homo sapiens, UniProt P25103)
# assayMethodText: NK1 receptor binding, [3H]substance P displacement, CHO cell membranes
# testParameters: first value of the cell pKi NK1/NK3; human NK1 receptor, [3H]substance P
pKi: −log10 of the molar value.
assayReadout: pKi

// below: answered compounds
[
  {
    "compound": "Cc1cc(F)ccc1-c1cc(N2CCC[C@H]2CO)ncc1N(C)C(=O)C(C)(C)c1cc(Cl)cc(Cl)c1",
    "measuredOn": "human NK1 receptor (Homo sapiens, UniProt P25103)",
    "pKi": 8.29
  },
  {
    "compound": "CN(C(=O)C(C)(C)c1cc(C(F)(F)F)cc(C(F)(F)F)c1)c1cnc(N2C[C@H](O)C[C@H]2CO)cc1-c1ccccc1Br",
    "measuredOn": "human NK1 receptor (Homo sapiens, UniProt P25103)",
    "pKi": 9.07
  },
  {
    "compound": "Cc1ccccc1-c1cc(N2C[C@H](O)C[C@H]2CO)ncc1N(C)C(=O)C(C)(C)c1cc(Cl)cc(Cl)c1",
    "measuredOn": "human NK1 receptor (Homo sapiens, UniProt P25103)",
    "pKi": 8.95
  },
  {
    "compound": "Cc1cc(F)ccc1-c1cc(N2C[C@H](O)C[C@H]2CO)ncc1N(C)C(=O)C(C)(C)c1cc(Cl)cc(Cl)c1",
    "measuredOn": "human NK1 receptor (Homo sapiens, UniProt P25103)",
    "pKi": 9.05
  }
]

[A] CN(C(=O)C(C)(C)c1cc(C(F)(F)F)cc(C(F)(F)F)c1)c1cnc(NCC(O)CO)cc1-c1ccccc1Cl (racemic)
[B] CN(C(=O)C(C)(C)c1cc(F)cc(F)c1)c1cnc(N2C[C@H](O)C[C@H]2CO)cc1-c1ccccc1Cl
query: Please tell me which of the two, A or B , has the higher reported pKi value. Give the label under which the chosen entry appears.
result: A
